Target: HDAC10 (Homo sapiens (Human), UniProt Q969S8)
Sequence (Q969S8 whole entry): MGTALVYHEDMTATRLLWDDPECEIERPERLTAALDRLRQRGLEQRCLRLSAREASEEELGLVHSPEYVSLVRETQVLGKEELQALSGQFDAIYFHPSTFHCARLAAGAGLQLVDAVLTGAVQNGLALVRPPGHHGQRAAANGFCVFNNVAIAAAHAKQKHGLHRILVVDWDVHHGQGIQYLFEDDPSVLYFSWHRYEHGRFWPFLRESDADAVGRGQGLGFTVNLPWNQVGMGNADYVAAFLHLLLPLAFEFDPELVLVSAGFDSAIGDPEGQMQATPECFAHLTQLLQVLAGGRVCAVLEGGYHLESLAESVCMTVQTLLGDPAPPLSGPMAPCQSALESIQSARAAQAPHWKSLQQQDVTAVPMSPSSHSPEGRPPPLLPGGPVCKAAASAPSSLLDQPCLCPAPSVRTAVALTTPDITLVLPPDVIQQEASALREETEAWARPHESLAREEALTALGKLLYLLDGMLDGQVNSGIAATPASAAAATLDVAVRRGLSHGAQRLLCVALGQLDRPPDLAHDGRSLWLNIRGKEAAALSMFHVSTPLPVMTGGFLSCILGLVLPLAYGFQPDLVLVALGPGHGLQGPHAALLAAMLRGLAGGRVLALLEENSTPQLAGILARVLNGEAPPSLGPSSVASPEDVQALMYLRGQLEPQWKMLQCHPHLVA
Assay: IC50 assay, BPS Biosciences fluorescence assay
Type: biochemical
Settings: BPS Biosciences fluorescence assay
Metric Name: IC50 (nM)
// units = nM; emit number, no label

Look up IC50 of CN(Cc1ccc(/C=C/C(=O)NO)cc1)CC12CC3CC(CC(C3)C1)C2 and report it.
8.9

###

Biological target: HDAC2 (Homo sapiens (Human), UniProt Q92769)
Sequence (Q92769 whole entry): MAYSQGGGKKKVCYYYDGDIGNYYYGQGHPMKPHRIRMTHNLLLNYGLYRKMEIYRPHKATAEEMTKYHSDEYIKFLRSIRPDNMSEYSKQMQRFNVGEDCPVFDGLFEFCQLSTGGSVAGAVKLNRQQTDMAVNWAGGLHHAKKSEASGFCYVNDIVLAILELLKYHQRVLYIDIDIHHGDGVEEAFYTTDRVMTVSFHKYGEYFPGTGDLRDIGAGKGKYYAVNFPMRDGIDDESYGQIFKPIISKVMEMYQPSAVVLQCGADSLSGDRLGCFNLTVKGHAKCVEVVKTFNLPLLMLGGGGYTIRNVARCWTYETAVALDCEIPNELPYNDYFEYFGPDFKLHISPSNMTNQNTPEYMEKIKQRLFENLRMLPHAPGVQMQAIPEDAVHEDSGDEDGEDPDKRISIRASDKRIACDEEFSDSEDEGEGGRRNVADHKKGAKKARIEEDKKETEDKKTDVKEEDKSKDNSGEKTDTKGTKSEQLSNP
Experiment: IC50 assay, BPS Biosciences fluorescence assay
Format: biochemical
Conditions: IC50 measured by BPS
Metric Name: IC50

Using known records, supply IC50 for CN(Cc1ccc(C(=O)NO)cc1F)CC12CC3CC(CC(C3)C1)C2
> 1000 nM
